Each entry below lists one item and its recorded microsomal CLint at 1 uM value.
- ASSAY OVERVIEW: Metabolic stability in human hepatic microsome
- Assay type: in vitro ADME
- APPLIED CONDITIONS: microsomes, pH 7.4; human hepatic microsome, NADPH(+); read-out: CL NADPH(+)
Starred links: 1 amine or outer side, 2 acyl side, 3 side chain; linkers in the order of their positions; H or OH if unused. Positions of bridges follow the written chain, without caps; N, C: chain ends. Non-standard residues stand in square brackets, D forms with d. Residues, ends and D or L forms follow the SMILES beside them. *: point of attachment. NMeF = CN[C@@H](Cc1ccccc1)C(=O)O; NMeI = CC[C@H](C)[C@H](NC)C(=O)O; NMeβAla = CN(CCC(=O)[*:2])[*:1]; NMeL = CN[C@@H](CC(C)C)C(=O)O; NMeV = CN[C@H](C(=O)O)C(C)C; NMeA = CN[C@@H](C)C(=O)O; Piperidide = C1CCN(*)CC1; dNMeA = CN[C@H](C)C(=O)O; Sar = CNCC(=O)O
READOUT TYPE: microsomal CLint at 1 uM (µL/min/mg)

COMPOUND | READOUT TYPE | ENDPOINT VALUE
CC(C)C[C@H]1C(=O)N(C)[C@@H](CC(C)C)C(=O)N[C@H](C(=O)N2CCCCC2)CC(=O)N(C)[C@@H](C)C(=O)N(C)[C@@H](Cc2ccccc2)C(=O)N(C)[C@@H](CC(C)C)C(=O)N[C@@H]([C@@H](C)O)C(=O)N1C [DP-679] ([NMeA][NMeF][NMeL]T[NMeL][NMeL]D-Piperidide; lactam N-7) | microsomal CLint at 1 uM | 342
CC(C)C[C@H]1C(=O)N(C)[C@@H](Cc2ccccc2)C(=O)N[C@@H]([C@@H](C)O)C(=O)N(C)[C@@H](C)C(=O)N(C)[C@@H](CC(C)C)C(=O)N(C)[C@@H](C)C(=O)N[C@H](C(=O)N2CCCCC2)CC(=O)N(C)CCC(=O)N(C)[C@@H](C)C(=O)N[C@@H](C)C(=O)N(C)[C@@H](C(C)C)C(=O)N1C [DP-414] ([NMeβAla][NMeA]A[NMeV][NMeL][NMeF]T[NMeA][NMeL][NMeA]D-Piperidide; lactam N-11) | microsomal CLint at 1 uM | 20
CC[C@H](C)[C@@H](C(=O)N[C@@H](Cc1ccccc1)C(=O)N1CCCCC1)N(C)C(=O)[C@@H]1CC(=O)N(C)[C@H](C)C(=O)N(C)[C@@H](CC(C)C)C(=O)N[C@@H](Cc2ccccc2)C(=O)N[C@@H]([C@@H](C)O)C(=O)N(C)CC(=O)N(C)[C@@H](C)C(=O)N(C)[C@@H](C(C)C)C(=O)N[C@@H](C)C(=O)N(C)[C@@H](CC(C)C)C(=O)N[C@@H](CC(C)C)C(=O)N1 [DP-583] ([dNMeA][NMeL]FT[Sar][NMeA][NMeV]A[NMeL]LD[NMeI]F-Piperidide; lactam N-11) | microsomal CLint at 1 uM | 27
CC[C@H](C)[C@@H]1NC(=O)[C@H](C)N(C)C(=O)[C@H](C)N(C)C(=O)[C@H]([C@@H](C)O)NC(=O)CN(C)C(=O)[C@H](C(C)C)N(C)C(=O)[C@H](CC(C)C)N(C)C(=O)[C@H](Cc2ccccc2)NC(=O)[C@@H](C)N(C)C(=O)C[C@@H](C(=O)N(C)[C@@H](Cc2ccccc2)C(=O)N(C)[C@@H](Cc2ccccc2)C(=O)N[C@@H](C)C(=O)N2CCCCC2)NC1=O [DP-506] ([dNMeA]F[NMeL][NMeV][Sar]T[NMeA][NMeA]ID[NMeF][NMeF]A-Piperidide; lactam N-10) | microsomal CLint at 1 uM | 14
CC[C@H](C)[C@@H]1NC(=O)[C@H](C)N(C)C(=O)[C@H](Cc2ccccc2)N(C)C(=O)[C@H](C)N(C)C(=O)C[C@@H](C(=O)N(C)[C@@H](Cc2ccccc2)C(=O)N(C)[C@@H](Cc2ccccc2)C(=O)N[C@@H](C)C(=O)N2CCCCC2)NC(=O)[C@H](C)N(C)C(=O)[C@H](CC(C)C)N(C)C(=O)[C@H](C)N(C)C(=O)[C@H]([C@@H](C)O)NC(=O)[C@H](C)N(C)C1=O [DP-395] ([NMeA][NMeF][NMeA]I[NMeA]T[NMeA][NMeL][NMeA]D[NMeF][NMeF]A-Piperidide; lactam N-10) | microsomal CLint at 1 uM | 23
CC(C)C[C@H]1C(=O)N(C)[C@@H](C)C(=O)N[C@H](C(=O)N(C)[C@@H](Cc2ccccc2)C(=O)N[C@@H](C)C(=O)N2CCCCC2)CC(=O)N(C)[C@@H](C)C(=O)N(C)[C@@H](Cc2ccccc2)C(=O)N(C)[C@@H](C)C(=O)N[C@@H]([C@@H](C)O)C(=O)N(C)[C@@H](C)C(=O)N[C@@H](C(C)C)C(=O)N1C [DP-357] ([NMeA][NMeF][NMeA]T[NMeA]V[NMeL][NMeA]D[NMeF]A-Piperidide; lactam N-9) | microsomal CLint at 1 uM | 56
CC(C)C[C@@H]1NC(=O)[C@H](CC(C)C)N(C)C(=O)[C@H](C)NC(=O)[C@H](C(C)C)N(C)C(=O)[C@H](C)N(C)C(=O)CN(C)C(=O)[C@H]([C@@H](C)O)NC(=O)[C@H](Cc2ccccc2)NC(=O)[C@H](CC(C)C)N(C)C(=O)[C@H](C)N(C)C(=O)C[C@@H](C(=O)N2CCCCC2)NC1=O [DP-237] ([NMeA][NMeL]FT[Sar][NMeA][NMeV]A[NMeL]LD-Piperidide; lactam N-11) | microsomal CLint at 1 uM | 37
CC[C@H](C)[C@@H]1NC(=O)[C@H](CC(C)C)N(C)C(=O)[C@H](Cc2ccccc2)N(C)C(=O)[C@H](Cc2ccccc2)NC(=O)[C@H](C)N(C)C(=O)[C@H](CC(C)C)N(C)C(=O)[C@@H](C(C)C)NC(=O)C[C@@H](C(=O)N(C)[C@@H](CC(C)C)C(=O)N[C@H](C(=O)N(C)[C@@H](C)C(=O)N[C@H](C(=O)N2CCCCC2)[C@@H](C)CC)C(C)C)NC(=O)[C@H](CC(C)C)NC(=O)[C@H]([C@@H](C)O)NC1=O [DP-947] ([dV][NMeL][NMeA]F[NMeF][NMeL]ITLD[NMeL]V[NMeA]I-Piperidide; lactam N-10) | microsomal CLint at 1 uM | 14
CC(C)C[C@H]1C(=O)N(C)[C@@H](Cc2ccccc2)C(=O)N[C@@H](C)C(=O)N2CCC[C@H]2C(=O)N(C)[C@@H](CC(C)C)C(=O)N(C)[C@@H](Cc2ccccc2)C(=O)N(C)[C@@H](C(C)C)C(=O)N[C@H](C(=O)N2CCCCC2)CC(=O)N[C@H](C)C(=O)N[C@@H]([C@@H](C)O)C(=O)N(C)CC(=O)N1C [DP-141] ([dA]T[Sar][NMeL][NMeF]AP[NMeL][NMeF][NMeV]D-Piperidide; lactam N-11) | microsomal CLint at 1 uM | 77
